Reference source for all entries: ChEMBL document CHEMBL3885861

LIVER listing for selected compounds.
- Species on record: Rattus norvegicus
- PROTOCOL_DESCRIPTION: Open TG-GATES - Regimen: Single
- Assay type: toxicity, organism-based, Sprague-Dawley
- Parameters: regimen Single, gender Male, age 6 weeks
- PARTICULARS: in vivo, po, 0 mg/kg, 3 h, tissue Liver, route gavage, dose level Control
READOUT_TYPE: LIVER (g)

> print(dat)
                                   compound  readout.type  obs.value
1  Cn1cnc([N+](=O)[O-])c1Sc1ncnc2nc[nH]c12 [AZATHIOPRINE]         LIVER        8.6
2  Cc1cccc(Nc2cc(Cl)nc(SCC(=O)O)n2)c1C [PIRINIXIC ACID]         LIVER        8.6
3  S=C=Nc1cccc2ccccc12 [1-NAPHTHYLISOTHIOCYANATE]         LIVER       10.2

====

// values below are reported ALT
- Organism: Rattus norvegicus
- PROTOCOL_DESCRIPTION: Open TG-GATES - Regimen: Single
- Format: toxicity, organism-based, Sprague-Dawley
- Design: regimen Single, gender Male, age 6 weeks
- PARTICULARS: in vivo, po, 0 mg/kg, 9 h, tissue Plasma, route gavage, dose level Control
READOUT_TYPE: ALT (IU/L)

> print(dat)
                                   compound  unit.abbreviation  obs.value
1  O=C1NC(=O)C(c2ccccc2)(c2ccccc2)N1 [PHENYTOIN]               IU/L       29.8
2  COc1ccc(O)c(C(C)(C)C)c1.COc1ccc(O)cc1C(C)(C)C [BUTYLATED HYDROXYANISOLE]               IU/L       30.8
3  Cc1cnc(NC(=O)C2=C(O)c3ccccc3S(=O)(=O)N2C)s1 [MELOXICAM]               IU/L       29.6
4  COc1ccc(Cl)cc1C(=O)NCCc1ccc(S(=O)(=O)NC(=O)NC2CCCCC2)cc1 [GLYBURIDE]               IU/L       30.8

====

- Organism: Rattus norvegicus
- PROTOCOL_DESCRIPTION: Open TG-GATES - Regimen: Daily Repeat
- Format: toxicity, organism-based, Sprague-Dawley
- Set-up: regimen Daily Repeat, gender Male, age 6 weeks
- PARTICULARS: in vivo, po, 0 mg/kg, […], tissue Plasma, route gavage, dose level Control, time 28 day
READOUT_TYPE: CRE (mg/dL)

> print(dat)
                                   molecule  unit.abbreviation  obs.value
1  COc1ccc(O)c(C(C)(C)C)c1.COc1ccc(O)cc1C(C)(C)C [BUTYLATED HYDROXYANISOLE]              mg/dL        0.3
2         O=C1NC(=O)C(c2ccccc2)(c2ccccc2)N1              mg/dL        0.3
3  Cc1cnc(NC(=O)C2=C(O)c3ccccc3S(=O)(=O)N2C)s1              mg/dL        0.5
4  O=P1(N(CCCl)CCCl)NCCCO1 (configuration not stated) [CYCLOPHOSPHAMIDE ANHYDROUS]              mg/dL        0.2
5  COc1ccc(Cl)cc1C(=O)NCCc1ccc(S(=O)(=O)NC(=O)NC2CCCCC2)cc1 [GLYBURIDE]              mg/dL        0.5
6       Cc1cccc(Nc2cc(Cl)nc(SCC(=O)O)n2)c1C              mg/dL        0.2
7  O=C1CN(/N=C/c2ccc(-c3ccc([N+](=O)[O-])cc3)o2)C(O)=N1              mg/dL        0.6
